Target under test: UniProt:Q06124
Sequence (Q06124 1-593): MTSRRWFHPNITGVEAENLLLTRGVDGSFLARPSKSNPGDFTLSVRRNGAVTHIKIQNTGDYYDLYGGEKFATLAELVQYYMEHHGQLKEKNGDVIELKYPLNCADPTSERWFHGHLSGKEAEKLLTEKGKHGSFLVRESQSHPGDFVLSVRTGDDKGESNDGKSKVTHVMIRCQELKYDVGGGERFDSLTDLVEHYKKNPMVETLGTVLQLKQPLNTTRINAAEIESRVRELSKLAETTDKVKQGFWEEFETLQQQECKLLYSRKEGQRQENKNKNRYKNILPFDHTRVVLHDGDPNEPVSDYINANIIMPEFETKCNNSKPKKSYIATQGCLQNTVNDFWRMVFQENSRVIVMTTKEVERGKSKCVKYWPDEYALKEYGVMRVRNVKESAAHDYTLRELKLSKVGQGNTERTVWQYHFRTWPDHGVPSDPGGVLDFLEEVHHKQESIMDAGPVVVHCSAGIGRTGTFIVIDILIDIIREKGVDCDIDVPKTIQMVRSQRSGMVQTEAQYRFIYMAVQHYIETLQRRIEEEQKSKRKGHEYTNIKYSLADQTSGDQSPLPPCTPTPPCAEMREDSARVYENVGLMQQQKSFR
Assay text: SHP2 Allosteric Inhibition Assay
Type: biochemical
Stated conditions: 0.5 nM SHP2 activated with 0.5 μM peptide IRS1_pY1172(dPEG8)pY1222; surrogate substrate DiFMUP, prompt fluorescence, 25° C.
Attribute measured: AC50 (nM)

Known results for molecules:
Nc1nccc(Sc2cnc(N3CCC4(CC3)C[C@H](O)C[C@H]4N)cn2)c1Cl = 4.1
CC1(O)C[C@@H](N)C2(CCN(c3cnc(Sc4ccnc(N)c4Cl)cn3)CC2)C1 (some centres unmarked) [Example 26] = 11.5
N[C@@H]1CCCC12CCN(c1cnc(Sc3ccccc3OC(F)(F)F)cn1)CC2 = 30.5
N#Cc1cccc(Sc2cnc(N3CCC4(CCC[C@H]4N)CC3)cn2)c1 = 210
N[C@@H]1CCCC12CCN(c1cnc(Sc3cccc(Cl)c3)cn1)CC2 = 279

A = CCc1ccccc1Sc1cnc(N2CCC3(CCC[C@@H]3N)CC2)cn1
B = N[C@@H]1COCC12CCN(c1cnc(Sc3ccnc(Cl)c3Cl)cn1)CC2
C = CC1CCC2(CCN(c3cnc(Sc4ccnc(N)c4Cl)cn3)CC2)[C@@H]1N (some centres unmarked) [Example 38]
Arrange by AC50, high to low. Use the labels to give the requested order.
A, C, B

I = CC1(N)CCN(c2cnc(Sc3cccc(N)c3Cl)cn2)CC1
II = CO[C@@H]1C[C@@H](N)C2(CCN(c3cnc(Sc4ccnc(N)c4Cl)cn3)CC2)C1
Of I and II , which one carries the higher reported AC50? Answer by stating the label of the chosen item.
II

A = N[C@@H]1CCCC12CCN(c1cnc(Sc3cccc(CO)c3)cn1)CC2
B = N[C@@H]1CCCC12CCN(c1cnc(Sc3ccccc3C(F)(F)F)cn1)CC2
I'm curious, which of these has a smaller AC50 number: A or B ? Answer by stating the label of the chosen item.
A
(A: 54.8 nM, B: 920 nM)

A = CC(C)(C)c1ccccc1Sc1cnc(N2CCC3(CCC[C@@H]3N)CC2)cn1
B = NCC1(CO)CCN(c2cnc(Sc3ccnc(N)c3Cl)cn2)CC1
Of A and B , which one carries the higher reported AC50? Answer by stating the label of the chosen item.
A
(A: 1460 nM, B: 70.5 nM)

a = Nc1nccc(Sc2cnc(N3CCC4(CCC(CO)[C@H]4N)CC3)cn2)c1Cl (some centres unmarked)
b = N[C@@H]1CCCC12CCN(c1cnc(Sc3ccncc3)cn1)CC2
c = Nc1ccccc1Sc1cnc(N2CCC3(CCC[C@H]3N)CC2)cn1
d = N[C@@H]1[C@H](O)[C@@H](O)CC12CCN(c1cnc(Sc3ccnc(Cl)c3Cl)cn1)CC2
Arrange by AC50, high to low. Use the labels to give the requested order.
c, b, a, d

P = Nc1cc(Sc2cnc(N3CCC4(CC3)COC[C@H]4N)cn2)c(Cl)c(Cl)n1
Q = N[C@@H]1CCCC12CCN(c1cnc(Sc3cccc(Cl)c3F)cn1)CC2
Of P and Q , which one carries the higher reported AC50? Answer by stating the label of the chosen item.
Q
(Q: 89.3 nM, P: 10.4 nM)

a = N[C@@H]1CCCC12CCN(c1cnc(Sc3ccncc3F)cn1)CC2
b = N#Cc1c(Sc2cnc(N3CCC4(CCC[C@H]4N)CC3)cn2)ccnc1Cl
Of a and b , which one carries the higher reported AC50? Answer by stating the label of the chosen item.
a
(a: 159 nM, b: 67 nM)

A = N[C@@H]1CCCC12CCN(c1cnc(Sc3cccc(C(F)(F)F)c3)cn1)CC2
B = C[C@@H]1OCC2(CCN(c3cnc(Sc4cc(N)nc(Cl)c4Cl)cn3)CC2)[C@@H]1N
I'm curious, which of these has a smaller AC50 number: A or B ? Answer by stating the label of the chosen item.
B
(B: 14.1 nM, A: 52.8 nM)

I = CC(C)CC1(CN)CCN(c2cnc(Sc3ccnc(N)c3Cl)cn2)CC1
II = N[C@@H]1CCCC12CCN(c1cnc(Sc3ccc(C(F)(F)F)cc3)cn1)CC2
I'm curious, which of these has a smaller AC50 number: I or II ? Answer by stating the label of the chosen item.
I
(I: 15.5 nM, II: 235 nM)
